insulin secretion, % of control at 10 µM by entry:
# System: INS-1 cells
# assayName: Stimulation test of insulin secretion by INS-1 cells
# Format: cell-based
# conditions: Rattus norvegicus, INS1, 1 h; 10 μM; insulin secretion by INS-1 cells in response to glucose; read-out: HGP % of ctrl @ 10 μM
Where a name gives a salt, the structure may show the parent alone.
Report the value in % with no unit label.

In [3]: df
Out[3]:
                                   compound  testvalue
0  OCCSCc1nc2ccc(Cl)cn2c1C#Cc1cccc(C(F)(F)F)c1 [Derivative 131]        131
1  CCOC(=O)COCc1nc2ccccn2c1C#Cc1ccc([N+](=O)[O-])cc1 [Derivative 5]        180
2  O=C(O)c1ccccc1OCc1nc2ccccn2c1C#Cc1ccc(F)cc1 [Derivative 88]        138

Measured insulin secretion, % of control at 10 µM, CCOC(=O)COCc1nc2ccccn2c1C#Cc1ccc(F)cc1 [Derivative 3] : 130

Measured insulin secretion, % of control at 10 µM, CCOC(=O)CN(C)Cc1nc2ccccn2c1C#Cc1cccc(C(F)(F)F)c1 [Derivative 101, hydrochloride] : 163

Measured insulin secretion, % of control at 10 µM, CC(C)OC(=O)COCc1nc2ccccn2c1C#Cc1ccc(F)cc1 [Derivative 54] : 203

Measured insulin secretion, % of control at 10 µM, CCOC(=O)COCc1nc2ccccn2c1C#Cc1ccccc1 [Derivative 1] : 121

Measured insulin secretion, % of control at 10 µM, O=C(COCc1nc2ccccn2c1C#Cc1ccc(F)cc1)NO [Derivative 59] : 134

Measured insulin secretion, % of control at 10 µM, COc1cccn2c(C#Cc3cccc(C(F)(F)F)c3)c(CSCCO)nc12 [Derivative 130] : 150

* * *

# Test system: INS-1 cells
# assayName: Stimulation test of insulin secretion by INS-1 cells
# Type: cell-based
# conditions: Rattus norvegicus, INS1, 1 h; 10 μM; insulin secretion by INS-1 cells in response to glucose; read-out: HGP % of ctrl @ 10 μM
insulin secretion, % of control at 10 µM by entry:
Report the value in % with no unit label.

Example cases with answers are listed next.
>>> df
                                inputsmiles  testvalue
0    CCOC(=O)COCc1nc2ccccn2c1C#Cc1ccc(C)cc1        127
1  CCOC(=O)[C@@H](N)CSCc1nc2ccccn2c1C#Cc1cccc(C(F)(F)F)c1        136
2  O=C(O)COCc1nc2ccccn2c1C#Cc1ccc(OC(F)(F)F)c(F)c1        121
3  CCOC(=O)CSCc1nc2ccc(Cl)cn2c1C#Cc1ccc(F)cc1        162

Now let's try a different one.
Measured insulin secretion, % of control at 10 µM, COC(=O)c1ccccc1OCc1nc2ccccn2c1C#Cc1ccccc1 : 197

* * *

# Tested on: INS-1 cells
# assayName: Stimulation test of insulin secretion by INS-1 cells
# Assay type: cell-based
# conditions: Rattus norvegicus, INS1, 1 h; 50 μM; insulin secretion by INS-1 cells in response to glucose; read-out: HGP % of ctrl @ 50 μM
Structures can show the parent of a compound that is named as a salt.
experimentalEndpoint: insulin secretion, % of control at 50 µM (%)
Report the value in % with no unit label.

Example cases with answers are listed next.
>>> print(df.to_string())
                                   compound                      experimentalendpoint  testvalue
0  CCOC(=O)CN(C)Cc1nc2ccc(Cl)cn2c1C#Cc1cccc(C(F)(F)F)c1  insulin secretion, % of control at 50 µM        107
1        CCOC(=O)COCc1nc2ccccn2c1C#Cc1ccsc1  insulin secretion, % of control at 50 µM        175
2  O=C([O-])c1ccccc1OCc1nc2ccccn2c1C#Cc1ccccc1.[Na+]  insulin secretion, % of control at 50 µM        211
3  CCOC(=O)CSCc1nc2ccc(Cl)cn2c1C#Cc1cccc(C(F)(F)F)c1  insulin secretion, % of control at 50 µM        173

Measured insulin secretion, % of control at 50 µM, CC(C)(CO)C(OCc1nc2ccccn2c1C#Cc1cccc(C(F)(F)F)c1)C(=O)O (stereo not drawn) : 146

Measured insulin secretion, % of control at 50 µM, COC(=O)c1ccccc1OCc1nc2ccccn2c1C#Cc1cccc(C#N)c1 : 152

Measured insulin secretion, % of control at 50 µM, CCOC(=O)COCc1nc2ccccn2c1C#Cc1cccc(C#N)c1 : 242

Measured insulin secretion, % of control at 50 µM, CCOC(=O)CN(C)Cc1nc2ccccn2c1C#Cc1cccc(C(F)(F)F)c1 [Derivative 101, hydrochloride] : 111
